Molecular target: corticotropin releasing factor 1 receptor; note: reference of the scale not given here
Assay: cell-based or functional assay
Ends that are not written are not given here.
Class definitions on CRF1R Emax: low (below 6%), mid (6% to below 70%), high (70% or more)

Data request: Note: place this binder into its band. Item: ZGPPISIDLPIFLLRKMIEIEKQEKEKQQAANNRLLLDTI (C-terminal amide) [SEQ ID NO 29]
Data returned: high

Data request: Note: place this binder into its band. Item: IVLSLDVPIGLLQILLEQEKQEKEKQQATTNARILARV-NH2 [SEQ ID NO 167]
Data returned: mid

Data request: Note: place this binder into its band. Item: ZGPPISIDLPTALLRKMIEIEKQEKEKQQAANNRLLLDTI (C-terminal amide) [SEQ ID NO 61]
Data returned: mid

Data request: Note: place this binder into its band. Item: ZGPPISIDLPIQLLRKMIEIEKQEKEKQQATTNARILARV (C-terminal amide) [SEQ ID NO 150]
Data returned: low

Data request: Note: place this binder into its band. Item: ZGPPISIDLPIGLLRKMIEIEKQEKEKQQAANNRLLLDTI (C-terminal amide) [SEQ ID NO 75]
Data returned: low

Data request: Note: place this binder into its band. Item: ZGPPISIDLPWYLLRKMIEIEKQEKEKQQAANNRLLLDTI (C-terminal amide) [SEQ ID NO 55]
Data returned: high

Data request: Note: place this binder into its band. Item: SQEIVLSLDVPIGLLREVLEMTKADQLAQQAHSNRKLLDIA-NH2 [SEQ ID NO 152]
Data returned: low

Data request: Note: place this binder into its band. Item: SQEPPISLDLPLQLLREVLEMTKADQLAQQAHSNRKLLDIA-NH2 [SEQ ID NO 95]
Data returned: low

Data request: Note: place this binder into its band. Item: ZGPPISIDLSLELLRKMIEIEKQEKEKQQATTNARILARV (C-terminal amide) [SEQ ID NO 142]
Data returned: high
